# ASSAY METHOD TEXT: small-molecule binders of probe aNOTCH3, primary screen, biochemical, small-molecule microarray, 635/667 nm fluorescence (AID 1120);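 further: probe is a biotin-tagged antibody raised against NOTCH3 rather than NOTCH3 protein; score merges spot fluorescence near 667 nm with spot signal to noise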
# SETTINGS: higher = more signal
MEASUREMENT LABEL: composite z-score
Give bare numbers.

CCOC(=O)[C@H](CC(C)C)NC(=O)CCC1CC(OC(=O)NCCc2ccc(F)cc2)CC2(CCCC(COC(=O)NCCc3ccc(Cl)cc3)O2)O1 (some centres undefined); 0.163
CCOC(=O)[C@H](Cc1ccccc1)NC(=O)CCC1CC(OC(=O)NCCc2ccc(F)cc2)CC2(CCCC(COC(=O)NCc3ccccc3)O2)O1 (some centres undefined); -0.0711

Give one value of composite z-score per listed molecule.
1. CCOC(=O)[C@H](CC(C)C)NC(=O)CCC1CC(OC(=O)NCc2ccc3c(c2)OCO3)CC2(CCCC(COC(=O)NCc3cccc(C(F)(F)F)c3)O2)O1 (some centres undefined)
2. CC(C)=CCCC(C)=CCON=C1C[C@@H](O)[C@@H](O)[C@@H]2[C@@H]3C(=O)N(C(C)(C)C)C(=O)[C@@H]3CC[C@H]12
3. COc1cccc([C@H]2Oc3ccc(OC)cc3C(=NOC[C@@H](O)COCc3ccco3)[C@@H]2O)c1
4. CCOC(=O)C1=NO[C@@]2(C=C(Br)C3(OCCCO3)[C@H]3O[C@H]32)C1
5. COc1cccc([C@H]2Oc3ccc(OC)cc3C(=NO[C@@H](C)c3cn([C@H](CO)Cc4ccccc4)nn3)[C@@H]2O)c1

Result:
1: -0.136; 2: 0.149; 3: -0.235; 4: 0.0962; 5: -0.132

Give one value of composite z-score per listed molecule.
1. COc1ccc(O[C@@H]2[C@H](O)CO[C@@H]2C=Cc2ccccc2)cc1
2. O=C1[C@H]2[C@H]3[C@H](O)[C@H](O)CC(=NOCc4ccccc4)[C@@H]3CC[C@H]2C(=O)N1c1ccc(F)cc1F
3. CCN1C(=O)[C@H]2[C@H]3[C@H](O)[C@H](O)CC(=NOCC(C)C)[C@@H]3CC[C@H]2C1=O

Result:
-0.0343
0.0303
0.179

Give one value of composite z-score per listed molecule.
1. CO[C@H]1COC(=O)CC=C[C@@H](C)[C@H](NS(=O)(=O)c2ccc(C)cc2)COC(=O)CCC[C@@H]1C
2. COC(=O)[C@@H]1CC[C@H](C)[C@@H](c2ccc(C)cc2)N1C(=O)c1ccc(C=NOC[C@@H](C)[C@H](OCc2ccccc2)C(C)C)cc1
3. O=C1CCCC=C1C(CCc1ccccc1)OC(=O)c1ccc(Br)cc1 (centres undefined)
4. C[C@H](ON=C1[C@H]2CCn3c(=O)n(-c4ccccc4)c(=O)n3[C@H]2[C@H](O)[C@@H]2O[C@H]12)c1cn([C@H](CO)Cc2ccccc2)nn1
5. CCOC(=O)[C@H](CC(C)C)NC(=O)CCC1CC(OC(=O)NCCc2ccc(F)cc2)CC2(CCCC(COC(=O)NCC3CCCCC3)O2)O1 (some centres undefined)

Result:
[-0.0711, 0.0271, -0.104, -0.0788, 0.119]

Give one value of composite z-score per listed molecule.
1. CCOC(=O)[C@H](Cc1ccccc1)NC(=O)CCC1CC(OC(=O)NCc2cccc3ccccc23)CC2(CCCC(COC(=O)NCc3cccc(C(F)(F)F)c3)O2)O1 (some centres undefined)
2. Cn1c(=O)n2n(c1=O)[C@H]1[C@H](O)[C@@H]3O[C@@H]3C(=O)[C@H]1CC2
3. COC(=O)[C@H](C)NC(=O)CCC1CC(OC(=O)NCc2ccc3c(c2)OCO3)CC2(CCCC(COC(=O)NCCc3ccccc3OC)O2)O1 (some centres undefined)
4. COc1ccc(O[C@@H]2[C@H](O)CO[C@H]2C=Cc2ccccc2)cc1
5. CCOC(=O)[C@H](CC(C)C)NC(=O)CCC1CC(OC(=O)NCc2cccc3ccccc23)CC2(CCCC(COC(=O)NCCOc3ccccc3)O2)O1 (some centres undefined)
6. C[C@@H](ON=C1[C@H]2CCn3c(=O)n(-c4ccccc4)c(=O)n3[C@H]2[C@H](O)[C@@H]2O[C@H]12)c1cn([C@@H]2COC[C@H]2O)nn1
7. CCOC(=O)NN=C1C[C@@H](O)[C@@H](O)[C@@H]2[C@@H]3C(=O)N(C(C)(C)C)C(=O)[C@@H]3CC[C@H]12

Result:
-0.124
-0.172
-0.125
-0.0647
-0.0048
0.0159
0.0431

Give one value of composite z-score per listed molecule.
1. CO[C@H]1COC(=O)[C@@H](Cc2ccccc2)NC(=O)[C@@H](C)COC(=O)CCC[C@@H]1C
2. C[C@@H](c1ccccc1)N1C(=O)[C@H]2[C@H]3[C@H](O)[C@H](O)CC(=NOCc4ccccc4)[C@H]3CC[C@H]2C1=O
3. CC(C)C[C@H](NC(=O)CCC1CC(OC(=O)NCc2cccc3ccccc23)CC2(CCCC(COC(=O)NCc3ccccc3)O2)O1)C(=O)NCC(c1ccccc1)c1ccccc1 (some centres undefined)
4. C[C@@H]1CC[C@H]2C(=O)O[C@@H](COc3ccc(C(C)(C)C)cc3)CN2[C@@H]1c1ccc(Br)cc1
5. CCOC(=O)[C@H](CC(C)C)NC(=O)CCC1CC(OC(=O)NCc2cccc3ccccc23)CC2(CCCC(COC(=O)NCC3CCCCC3)O2)O1 (some centres undefined)

Result:
[0.0257, -0.0288, 0.0876, -0.21, 0.0311]

Give one value of composite z-score per listed molecule.
1. CO[C@H]1COC(=O)CC=C[C@@H](C)[C@H](OC)COC(=O)CCC[C@@H]1C
2. CC(CCN1CCCCc2nc(C)c(C)cc21)=NO[C@@H](C)c1cn([C@H](CO)Cc2ccccc2)nn1

Result:
[-0.149, 0.0833]

---

Provide the recorded z-score for the entries that follow.
# ASSAY METHOD TEXT: modulators of HCV replicon luciferase signal, primary screen, HCV replication inhibitor project, Huh7 cells, luciferase reporter (AID 1109);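 further: huh7 hepatoma cells harbouring a luciferase neomycin HCV replicon reporter; luciferase luminescence as measure of HCV replicon replication; test concentration not given here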
# SETTINGS: 48 h, higher = more signal

Example entries begin here.
CCCNC(=O)OC[C@H]1O[C@H](CCON=C(C)CCC(=O)OC[C@H]2O[C@H](c3ccccc3)C=C[C@@H]2Oc2ccc(OC)cc2)C=C[C@@H]1Oc1ccc(OC)cc1; -1.17
C[C@H]1COC(=O)[C@@H]2CCCN2C(=O)[C@@H](C)COC(=O)[C@H](Cc2ccccc2)NC1=O; -1.34

Give one value of z-score per listed compound.
1. CCOC(=O)[C@H](Cc1ccccc1)NC(=O)CCC1CC(OC(=O)NCc2cccc3ccccc23)CC2(CCCC(COC(=O)NCc3cccc(C(F)(F)F)c3)O2)O1 (stereo partly drawn)
2. COC(=O)CC=C[C@@H](C)[C@@H](C=NO[C@@H](C)c1cn([C@H](CO)Cc2ccccc2)nn1)OC
3. C=CC1=C[C@H](O)[C@@H]2O[C@@H]2C12OCCCO2
4. CC(=O)O[C@H]1C2=CO[C@H](C)[C@H]3[C@H]4C5=C([C@H](O)[C@H]6O[C@H]6C5=O)[C@H](OC4C)[C@@]23C(=O)[C@@H]2O[C@@H]21 (stereo partly drawn)
5. CO[C@H]1COC(=O)CC=C[C@@H](C)[C@H](NS(=O)(=O)c2ccc(C)cc2)COC(=O)CCC[C@@H]1C

Result:
[-0.771, 0.0629, -0.876, -4.68, -2.24]

Q: So what does the record say about z-score for COC(=O)[C@@H]1CC[C@H](C)[C@@H](c2ccc(C)cc2)N1C(=O)c1ccc(C=NO[C@@H]2O[C@H](COC(C)=O)[C@@H](OC(C)=O)[C@H](OC(C)=O)[C@H]2OC(C)=O)cc1 ?
Result: -0.465

---

# TARGET UNDER TEST: Torsin-1A (Homo sapiens) (UniProt O14656)
# Sequence (O14656 whole entry, looked up): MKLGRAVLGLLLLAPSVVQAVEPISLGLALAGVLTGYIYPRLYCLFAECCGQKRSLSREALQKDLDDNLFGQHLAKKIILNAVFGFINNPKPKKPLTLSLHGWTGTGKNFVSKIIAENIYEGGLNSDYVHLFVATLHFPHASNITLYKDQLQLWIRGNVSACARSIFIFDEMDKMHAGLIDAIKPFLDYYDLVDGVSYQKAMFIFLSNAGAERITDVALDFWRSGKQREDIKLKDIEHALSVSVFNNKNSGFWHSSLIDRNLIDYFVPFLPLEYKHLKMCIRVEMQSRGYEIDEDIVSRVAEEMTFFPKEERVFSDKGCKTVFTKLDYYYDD
# ASSAY METHOD TEXT: torsin A binders from cell lysate, primary screen, small-molecule microarray, wild-type, 635/667 nm (AID 1149)
# SETTINGS: COS7 hTOR1A-WT lysate, 635 nm fluorescence, higher = more signal
Param threshold (0.5) applies to composite z-score; output t when value >= threshold, f when value < threshold.

Answered cases to consult:
COC(=O)CC=C[C@@H](C)[C@@H](C=NO[C@H](C)c1cn([C@H](CO)Cc2ccccc2)nn1)OC; t
COc1cccc([C@H]2Oc3ccc(OC)cc3C(=NOC(C)CN3CCCCc4nc(C)c(C)cc43)[C@@H]2O)c1 (stereo not given in full); f

Q: # bool: composite z-score of CCOC(=O)C1=NO[C@@]2(C=C(Br)C3(OCCCO3)[C@H]3O[C@H]32)C1 >= 0.5
Result: t

Q: # bool: composite z-score of C=CC[C@@H]1C=C[C@H](ON=C(C)CCC(=O)OC[C@H]2O[C@H](c3ccccc3)C=C[C@@H]2Oc2ccc(OC)cc2)[C@@H](CO)O1 >= 0.5
Result: f
